experimentalProtocol: qHTS profiling for inhibitors of Plasmodium falciparum (3D7) proliferation (AID 743322);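 also: infected erythrocytes exposed to compound for 72 h before lysis; 100% = DMSO vehicle wells and 0% = 0.29 µM artemisinin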
reportedConditions: P. falciparum 3D7 proliferation; at 28.7 µM (top of the series)
Please respond with label 1 when measured remaining parasite growth % (stronger effect = lower value) is strictly beneath 10%, and with label 0 in all other cases.

{"compound": "CC(C)[C@H](C(=O)Nc1ccc(C(=O)NO)cc1)c1ccccc1", "labelValue": "label 1"}
{"compound": "CNc1nccc(-c2cccnc2Oc2cc(C(=O)Nc3cccc(C(F)(F)F)c3)ccc2C)n1", "labelValue": "label 1"}
{"compound": "Cc1cn(-c2cc(NC(=O)c3ccc(C)c(Nc4nccc(-c5cccnc5)n4)c3)cc(C(F)(F)F)c2)cn1", "labelValue": "label 1"}
{"compound": "N#Cc1c(O)c2c(-c3ccc(-c4ccccc4O)cc3)csc2[nH]c1=O", "labelValue": "label 0"}
{"compound": "CC(=O)c1c(C)c2cnc(Nc3ccc(N4CCNCC4)cn3)nc2n(C2CCCC2)c1=O", "labelValue": "label 1"}
{"compound": "COc1cc2ncn(-c3cc(OCc4ccccc4C(F)(F)F)c(C(N)=O)s3)c2cc1OC", "labelValue": "label 0"}
{"compound": "COc1cccc2nc(-c3cccs3)nc(NN3C(=O)C=C(C)C3=O)c12", "labelValue": "label 0"}
{"compound": "CCC[C@H](NC(=O)C(C#N)=Cc1cccc(Br)n1)c1ccccc1", "labelValue": "label 0"}
{"compound": "Cc1[nH]c2ccccc2c1CCNCc1ccc(C=CC(=O)NO)cc1", "labelValue": "label 1"}
{"compound": "O=C(C=Cc1cccc(S(=O)(=O)Nc2ccccc2)c1)NO", "labelValue": "label 1"}
{"compound": "O=C(O)c1ccc2cc(-c3ccc(O)c(C45CC6CC(CC(C6)C4)C5)c3)ccc2c1", "labelValue": "label 1"}
{"compound": "COC(=O)c1ccc2c(C(=Nc3ccc(N(C)C(=O)CN4CCN(C)CC4)cc3)c3ccccc3)c(O)[nH]c2c1", "labelValue": "label 1"}
{"compound": "COc1ccc(CC2SC(=O)NC2=O)cc1C(=O)NCc1ccc(C(F)(F)F)cc1 (stereo not given)", "labelValue": "label 0"}
{"compound": "CNC(=O)c1cc(Oc2ccc(NC(=O)Nc3cc(C(C)(C)C)nn3-c3ccc4ncccc4c3)c(F)c2)ccn1", "labelValue": "label 0"}
{"compound": "Cc1cccc(C=NNc2cc(N3CCOCC3)nc(OCCc3ccccn3)n2)c1", "labelValue": "label 1"}
{"compound": "CCC(=C(c1ccccc1)c1ccc(OCCN(C)C)cc1)c1ccccc1", "labelValue": "label 0"}
{"compound": "Cc1[nH]nc2ccc(-c3cncc(OC[C@@H](N)Cc4ccccc4)c3)cc12", "labelValue": "label 0"}
{"compound": "Nc1nccc(Oc2ccc(NC(=O)c3c[nH]cc(-c4ccc(F)cc4)c3=O)cc2F)c1Cl", "labelValue": "label 1"}
{"compound": "CC(C)C[C@H](NC(=O)CNC(=O)c1cc(Cl)ccc1Cl)B(O)O", "labelValue": "label 1"}
{"compound": "C=CCn1c(=O)c2cnc(Nc3ccc(N4CCN(C)CC4)cc3)nc2n1-c1cccc(C(C)(C)O)n1", "labelValue": "label 0"}
